- procedure_summary: folding stability dG unfold from chymotrypsin proteolysis; higher = more stable
reported_endpoint: folding stability dG unfold

Some sequences with known folding stability dG unfold results, for comparison:
macromolecule_sequence	folding stability dG unfold
SAGGRIVEAAKEAGLDGVDLKEIRPLPDGGVEIRILPPPGMPEEAAAEAAERIERALREEFPDTRIDTESAG [r5_101_TrMRF]	0.207 kcal/mol
SAGGSAGGPSPNQPERQQVQVEAKIRFPDPNGKEWTIEITAYGSVGDARDAARSLAREIKNGKISAGGSAGG [r6_944_TrROS]	-0.782 kcal/mol
SAGGKYKIEIEITEIKEKEDGTKEITIKIKIYDEETGELIYTITVKMRIDKKTNKIIIEEVKIEKLPPSAGG [r13_596_TrROS_Hall]	6 kcal/mol
SAGGSIEELAREKALEEHKKTGEKNYPFTFEFEIVSSYEFAPDGTPVASSEFPFKITLKFKLPPKKKSAGGS [r16_156_JUSTAS]	2.88 kcal/mol
SAGGSAGGSPPGWTIMMFEITISITVPRVEVYDPKDGKPRAEVPYVRVSIPIPIFIIFPAGAFSAGGSAGGS [r12_600_TrROS]	4.24 kcal/mol

Read the next record carefully.
Just so you know, measured folding stability dG unfold for SAGGSAGGSAGGSIPPSDVTTEVDPNTPLTTVTYPSGVVVTETFPPDGTSTTTVDTAAGSAGGSAGGSAGGS [r10_170_JUSTAS] came out at 1.23 kcal/mol

* * *

- procedure_summary: folding stability dG unfold (combined trypsin and chymotrypsin); higher = more stable
Reported folding stability dG unfold values follow for various sequences
Field format: number, assumed kcal/mol, no unit text.

Check out these entries, answers already filled in.
macromolecule_sequence	folding stability dG unfold [kcal/mol]
SAGGSAGGMKIKVKFTITKSDPNSDSPVPRVITKEFESLEEAEKEFNKLKNLPSGYTVEVEIVESAGGSAGG [r7_0_JUSTAS]	3.62
SAGGSAMKKTTATFYVRPDSLTVEIELGEKTKKLTFDPSVSIEEVKASLPDYVDEVKVKPASPSLSSAGGSA [r15_1058_JUSTAS]	0.242
SAGGSAGGSPGTLIEVRFPDRIVRIYQLPPGVYRVEVYEPPYLVATIELPNVTAEEAARLALGSAGGSAGGS [r20_8_TrMRF]	2.72

Measured folding stability dG unfold of SAGGSAGGSAGGGVEVLSAERRRIPETGLVLVVIREKEPLKPIVVLMPEEDAVVFLKHFSAGGSAGGSAGGS [r10_988_TrMRF] : 0.703

Record SAGGSAGGSAMLRIRFENGLEIEIPKDMTLEELKKLAEELAEELKKEGKEVEVKIVEIEPVPSAGGSAGGSA [r18_213_TrROS_Hall] , field folding stability dG unfold: 2.03

The recorded folding stability dG unfold for entry SAGGSMNPSVSVEEEVFPDGVTRLKLTFSDGKELEAEVTRHADGNVQVTLYDKSPGKKTTYTIPLSSAGGSA [r2_99_JUSTAS] equals 1.21

Quick note, folding stability dG unfold for SAGGSAGGSAGGDDNDPGKIKIEVEVETYPIPNPNGEPFYITTHTIKIPNLDIEFMMIMPSAGGSAGGSAGG [r7_945_TrROS] landed at 1.7

* * *

- procedure_summary: folding stability dG unfold from trypsin proteolysis; higher = more stable
reported_endpoint: folding stability dG unfold (kcal/mol)
Give a bare numeral; the unit kcal/mol is implied.

Observe how each entry below is paired with its result.
macromolecule_sequence	reported_endpoint	reported
SAGGKTITLPNGITITVNEDGTVTVTVTVDGKTLTVTVKVDSLEEALAAILEELRRLLKPPEVTVVKPSAGG [r13_896_TrROS_Hall]	folding stability dG unfold	2.52
SAGGSAGGSAGKPKTVEIEVTNEDGSKYKAKVVEVDEEKGYVLIKITNPDGSEQTILIKLSAGGSAGGSAGG [r11_742_TrROS_Hall]	folding stability dG unfold	1.81

Next, consider the following sequence.
GET /value?item= SAGGSAGGSGPNIKVSSSTSTYTLPNGKKVTVKTIVIETENSKYLIVVLTDPNGKSIVFIKPLSAGGSAGGS [r12_213_TrMRF] &field=folding stability dG unfold returns 3.21

* * *

Listing: folding stability dG unfold of selected sequences
- procedure_summary: folding stability dG unfold from trypsin proteolysis; higher = more stable
Give the value, in units of kcal/mol, as a plain number.

Would you please look over these solved cases?
macromolecule_sequence	folding stability dG unfold (kcal/mol)
SAGGSAKKKKTLKITLIIKVKTKEEAEKLAEELAEKLKKLLPEGAKIKVKVTVNKETGYVTVEIELSAGGSA [r15_981_TrROS_Hall]	2.88
SAGGMKVVIYVKDPEKFLKAIEEIENIPLENVKFEPLEGDYYKYEFPNLEAVEELIKKGYDILKIEPSAGGS [r16_381_TrMRF]	1.96
SAGGSMTAEELEGLPAEEIAELLPSDYTVSFIPETGLLVVEAPTRVVLATYNPAEGTVTLLEVRDASAGGSA [r2_470_TrMRF]	0.849
SAGGSAGGSAGGDSMSYDPKLVEEPVVEVFDGPVLVRVTEVTLPNGKKLTTTEELPPGLESAGGSAGGSAGG [r7_846_JUSTAS]	-0.436
SAGGSAMKIEITVEKNENGELTITVKIYDKNGKLVKEIKLKVKTEEEAKKALKELAEKLGIEVEPESAGGSA [r15_242_TrROS_Hall]	2.03

The value of folding stability dG unfold measured for the sequence SAGGSGIDFDIEFHNNHITIDIYMYDPNGQPIFEMTMTIPIPPVPPPPVPEVKVDDPEEAKEAKNQSAGGSA [r2_332_TrROS] turned out to be 0.751

Lab note: SAPPYYIVIKFKMELPPPTPEDAKEYDPDGEVRRTTVEMTFVIPIPPEDLEDLKDFMQSLGIEEIEIFKSAG [r14_509_TrROS] gave folding stability dG unfold of 2.05

* * *

- procedure_summary: folding stability dG unfold from trypsin proteolysis; higher = more stable
Use true (1) when the recorded folding stability dG unfold is no lower than 2 kcal/mol; use false (0) when it is lower.

macromolecule_sequence	discrete_label
SAGGMIVANVNPETDKVTLLITRPVVLYDEETGELREEEVTLVITASLEELEKLEEESGLPLLIIPSSAGGS [r8_337_TrMRF]	false (0)

# check: folding stability dG unfold of SAGGSAGGSAGGSMPVKLDEIIDYDPKKKVLTVLLTHPDGSKSLVVVPGKSIEEIKEANSAGGSAGGSAGGS [r4_357_TrMRF] is greater than or equal to 2 kcal/mol
false (0)

Check this sequence for folding stability dG unfold at or above 2 kcal/mol: SAGFYFRITEITVNPDAGKLTIRNPNGQEQEIPPGGKISIKMRFYRFNDNGGKPETFEMEHTIPIPPGDSAG [r14_366_TrROS]
true (1)

Entry SAGGSAMPIELDLVIEIPIDAHPDQTVEDLVEEIAERIRRLLPPDTVVELRVHLHPELGVALADVSSAGGSA [r15_739_TrMRF] : is its folding stability dG unfold no less than 2 kcal/mol?
false (0)

In plain terms: is recorded folding stability dG unfold at least 2 kcal/mol for SAGGSMTTITLTLEFELDENGEVDPEKIEAEAEKIKEENPEIKELTVEVKRDPNSNKITVTVTAKVPSAGGS [r8_258_JUSTAS] ?
true (1)

* * *

- procedure_summary: folding stability dG unfold (combined trypsin and chymotrypsin); higher = more stable
reported_endpoint: folding stability dG unfold (kcal/mol)
Write it as a number; the unit kcal/mol goes unstated.

macromolecule_sequence	units	folding stability dG unfold
SAMKLSPELLKKLGLSKEDIKEIEIEVEPVPELSEEDLKKKNVTVYKVKIKIKVNGKEYEVELLFVEPKSAG [r14_483_TrROS_Hall]	kcal/mol	2.18

Next, consider the following sequence.
For this sequence ( SAGGSAGGSAGGPLKLKVKLKLEFEVKDENGKTSKVELEVELEVELPEIVLDKNGKLLLSAGGSAGGSAGGS [r10_168_TrROS_Hall] ), measured folding stability dG unfold is 2.95

* * *

- procedure_summary: folding stability dG unfold from trypsin proteolysis; higher = more stable
reported_endpoint: folding stability dG unfold (kJ/mol)
Just the number please, in kJ/mol, no unit attached.

Example results:
macromolecule_sequence	folding stability dG unfold (kJ/mol)
SAGGSAGGSITVEVEVEIVDEVEDPNTQGYRPVRVSRIPITIPVPESWSEEDIEAAVKEAIEKASAGGSAGG [r6_494_JUSTAS]	4.62
SAGGSAGGSAGGKPKKILNIELVLKGKDGKKYKLKIEIYNYPDKPKIYITFPDGTTIEASAGGSAGGSAGGS [r10_404_TrMRF]	14.8

The record that follows has no folding stability dG unfold shown yet.
Measured folding stability dG unfold of SAGGSAKKVIVIEVKPGEKITITINGKKVEIVEVKPEGETFLIRNKDTGEIYKITVVDGKVVIEKLSAGGSA [r15_235_TrROS_Hall] : 10.2
